meta.source: patent US4939137A

# experimentalSystem: alpha-1 adrenergic receptor
# experimentalDetails: Brain Alpha-1 Radioreceptor Assay (3H-prazosin)
# particulars: guinea pig brain membranes, 30 minutes, 30° C., read-out: RECEPTOR BINDING ALPHA-1 (IC50)
quantity: pIC50
Just the number, please; pIC50 means minus log10 of the concentration in mol/L.

Data point: `COc1ccccc1N1CCN(CCn2c(=O)c3scc4c3n(c2=O)CCC4=O)CC1` ; pIC50 = 8.22

The reported pIC50 of the compound `O=C1CCn2c(=O)n(CCCCN3CCC(C(=O)c4ccc(F)cc4)CC3)c(=O)c3csc1c32` was 6.27

Data point: `O=C1CCn2c(=O)n(CCN3CCC(C(=O)c4ccc(F)cc4)CC3)c(=O)c3csc1c32` ; pIC50 = 6.00

# pIC50 of `O=C1CCn2c(=O)n(CCN3CC=C(c4ccccc4)CC3)c(=O)c3csc1c32` = 8.12

Summary for this compound, COc1ccccc1N1CCN(CCn2c(=O)c3csc4c3n(c2=O)CCCC4O)CC1 (stereo not drawn) : pIC50 is 9.40

Record `O=C1CCn2c(=O)n(CCCCN3CCN(c4cccc(C(F)(F)F)c4)CC3)c(=O)c3csc1c32` . Reported pIC50: 5.35

Lab note: measured pIC50 of `CON=C1CCn2c(=O)n(CCN3CCN(c4ccccc4OC)CC3)c(=O)c3csc1c32` was 7.40

Please fill in: pIC50 reported for `CON=C1CCCn2c(=O)n(CCN3CCN(c4ccccc4OC)CC3)c(=O)c3csc1c32` = 9.85

According to the records, this compound `O=C1CCn2c(=O)n(CCN3CCN(c4cccc(Cl)c4)CC3)c(=O)c3csc1c32` displays pIC50 of 6.74

// pIC50 lookup, compound = COc1ccccc1N1CCN(CCn2c(=O)c3csc4c3n(c2=O)CCC4NC(C)=O)CC1 (stereo not drawn) , result: 9.46

// sample `CON=C1CCn2c(=O)n(CCCN3CCN(c4ccccc4OC)CC3)c(=O)c3csc1c32` , its pIC50 was 7.59

----------
# experimentalSystem: 5HT1A receptor (Rattus norvegicus)
# Sequence (P19327 1-422): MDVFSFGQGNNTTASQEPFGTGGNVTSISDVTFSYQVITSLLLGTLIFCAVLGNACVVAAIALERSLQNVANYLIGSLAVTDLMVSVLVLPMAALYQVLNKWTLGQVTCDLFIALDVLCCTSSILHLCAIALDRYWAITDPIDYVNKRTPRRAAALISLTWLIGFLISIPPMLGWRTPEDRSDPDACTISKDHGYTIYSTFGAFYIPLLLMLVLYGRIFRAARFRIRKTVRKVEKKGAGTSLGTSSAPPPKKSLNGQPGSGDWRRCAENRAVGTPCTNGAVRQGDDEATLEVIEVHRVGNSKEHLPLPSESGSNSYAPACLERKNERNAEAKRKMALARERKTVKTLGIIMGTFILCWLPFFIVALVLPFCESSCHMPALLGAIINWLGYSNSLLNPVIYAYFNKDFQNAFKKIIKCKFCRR
quantity: IC50 (nM)
Could you give me the number in nM? Just the number is fine.

# COc1ccccc1N1CCN(CCn2c(=O)c3csc4c3n(c2=O)CCCC4O)CC1 (stereo not drawn) [Example 22] with 5HT1A receptor (Rattus norvegicus): IC50 is 62

For the molecule COc1ccccc1N1CCN(CCn2c(=O)c3csc4c3n(c2=O)CCCCC4=O)CC1 [Example 16] , the measured IC50 on 5HT1A receptor (Rattus norvegicus) was 160

The molecule COc1ccccc1N1CCN(CCn2c(=O)c3csc4c3n(c2=O)CC=C4)CC1 [Example 24] on 5HT1A receptor (Rattus norvegicus): IC50 was 120
